Values compiled from the supplement of paper PMC10567573.

B1: PLAGL1 (parent)
chain: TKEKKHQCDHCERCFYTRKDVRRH

variants of: B1; experiment: protein stability index of a GFP-peptide fusion (GPS, HEK-293T) (PSI 1-6); higher = more stable; conditions: c terminus: a fixed tail appended;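 further: lentivirally expressed fusions sorted by FACS into six bins by GFP to DsRed ratio, PSI derived from sequencing read proportions per bin multiplied by bin number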
protein stability index for assorted variants

E12K ... 3.09
T17G ... 3.05
D20P ... 3.1
E3Y ... 3.12
H24E ... 4.12

protein stability index lookup needed for `V21N` , thanks.
3.54

Ok, now `T1C`
3.75

Ok, now `E3G`
3.45
